Experiment: Solubility of peptides
Format: physicochemical
Conditions: insoluble at higher concentrations; read-out: solubility limit
Where a SMILES comes first, the peptide text is derived from it.
// values below are reported solubility

compound	solubility
CSCC[C@H](NC(=O)[C@@H](NC(=O)[C@@H](NC(=O)[C@H](Cc1ccc(O)cc1)NC(=O)[C@H](Cc1ccccc1)NC(=O)[C@@H](N)CCCNC(=N)N)C(C)C)C(C)C)C(=O)N[C@@H](Cc1c[nH]c2ccccc12)C(=O)N[C@@H](CCCCN)C(=O)O [4N1-1, Arg-Phe-Tyr-Val-Val-Met-Trp-Lys]	≤ 200 µM

[in] Name the reported solubility value associated with the compound CSCC[C@H](NC(=O)[C@@H](NC(=O)[C@@H](NC(=O)[C@H](Cc1ccc(O)cc1)NC(=O)[C@H](Cc1ccccc1)NC(=O)[C@@H](N)CCCNC(=N)N)C(C)C)C(C)C)C(=O)N[C@@H](Cc1c[nH]c2ccccc12)C(=O)N[C@@H](CCCCN)C(=O)N[C@@H](CCC(N)=O)C(=O)N[C@H](C(=O)N[C@H](C(=O)N[C@@H](CCC(N)=O)C(=O)N[C@@H](CO)C(=O)O)[C@@H](C)O)C(C)C [4N1] (H-RFYVVMWKQVTQS-OH; N-terminus and C-terminus assumed)
[out] ≤ 200 µM
